tested on: Dissociated VM cells; assay: Neuroprotection Assay (NMDA-induced neuroexcitotoxic injury, high affinity 3H-dopamine uptake); format: cell-based, Sprague-Dawley rat; conditions: embryonic day 15 rat ventral mesencephalic cultures, NMDA (100-400 µM) for 20 hours
Where a name gives a salt, the structure may show the parent alone.
OBSERVED PROPERTY: EC50

The following molecules have reported results that may help.
# MOLECULE, ENDPOINT RESULT
data = [
    ("O=C([C@@H]1CCCN1Cc1ccc(F)cc1)N1CCC(Cc2ccccc2)CC1 [Compound 58, hydrochloride]", "< 100 nM"),
    ("CCN1CCC[C@H]1C(=O)N1CCN(C(c2ccc(F)cc2)c2ccc(F)cc2)CC1 [Compound 50, dihydrochloride]", "100 to 500 nM"),
    ("CCN1CCCC[C@H]1C(=O)N1CCC(C(=O)c2ccc(F)cc2)CC1", "100 to 500 nM"),
    ("O=C(C1CCN(C/C=C/c2ccccc2)CC1)N1CCC(Cc2ccc(F)cc2)CC1", "< 100 nM"),
    ("CCN1CCCC[C@H]1C(=O)N1CCN(S(=O)(=O)c2ccc(F)cc2)CC1 [Compound 81, hydrochloride]", "> 500 nM"),
]

Now examine the next entry.
Exam item: Need EC50, item `O=C([C@@H]1C[C@@H](O)CN1Cc1ccccc1)N1CCC(Cc2ccccc2)CC1`
Marked response: < 100 nM
